# Measured target: human H1 receptor (Homo sapiens)
# Construct: expressed in transfected cells
# Procedure text: Histamine H1 functional antagonist assay (FLIPR): determination of antagonist pA2
# Format: cell-based
Where a name gives a salt, the structure may show the parent alone.
Observed property: Kb

*Q* Entry COc1ccc(Cc2nn(C[C@H]3CCCN3CCCCc3ccc(OCCCN4CCCCCC4)cc3)c(=O)c3ccccc23)cc1 [Example 7, diformate] has what Kb?
*A* < 1 nM

*Q* // returns reported Kb for input O=C(NCCN1CCCC(n2nc(Cc3ccc(Cl)cc3)c3ccccc3c2=O)CC1)c1ccc2c(c1)CCN(C1CCC1)CC2 (stereo not shown) [Example 18, diformate salt]
*A* < 10 nM

*Q* Query (compound): `O=c1c2ccncc2c(Cc2ccc(Cl)cc2)nn1C[C@H]1CCCN1CCCCc1ccc(OCCCN2CCCCCC2)cc1` ; field requested: Kb
*A* < 1 nM

*Q* Name the recorded Kb for `O=c1c2ccccc2c(Cc2ccc(Cl)cc2)nn1C[C@H]1CCCN1CCCCc1ccc(OCCCN2CCCCCC2)cc1` .
*A* ~1.26 nM

----------
# Measured target: human H1 receptor (Homo sapiens, UniProt P35367)
# Construct: expressed in transfected cells
# Sequence (P35367 whole entry): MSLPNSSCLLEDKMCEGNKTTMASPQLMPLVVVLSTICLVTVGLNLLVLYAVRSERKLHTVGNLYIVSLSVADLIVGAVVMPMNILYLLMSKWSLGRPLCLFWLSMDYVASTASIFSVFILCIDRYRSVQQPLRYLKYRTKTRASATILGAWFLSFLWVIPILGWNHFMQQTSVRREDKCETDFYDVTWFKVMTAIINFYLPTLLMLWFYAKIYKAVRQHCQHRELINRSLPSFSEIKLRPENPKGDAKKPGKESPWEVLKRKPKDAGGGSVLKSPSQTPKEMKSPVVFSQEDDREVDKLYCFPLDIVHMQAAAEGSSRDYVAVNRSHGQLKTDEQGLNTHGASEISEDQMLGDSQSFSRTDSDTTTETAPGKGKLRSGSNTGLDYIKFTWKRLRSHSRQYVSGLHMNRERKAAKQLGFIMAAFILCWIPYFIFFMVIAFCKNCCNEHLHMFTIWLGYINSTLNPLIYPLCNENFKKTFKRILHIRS
# Procedure text: Histamine H1 functional antagonist assay (FLIPR): determination of antagonist pA2
# Type: cell-based
# Applied conditions: CHO cells expressing human H1, histamine concentration response curves; read-out: average pA2 values at H1 (converted)
# Procedure: The human H1 receptor is cloned using known procedures described in the literature [Biochem. Biophys. Res. Commun., 201(2):894 (1994)]. […] The histamine H1 receptor expressing CHO cells are seeded into non-coated black-walled clear bottom 96-well tissue culture plates as described above. […] The antagonist pA2 is calculated using the following standard equation: pA2=log(DR-1)- log[B] where DR=dose ratio, defined as EC50antagonist-treated/EC50control and [B]=concentration of antagonist.
Observed property: Kb

*Q* Consider the molecule O=c1c2ccccc2c(Cc2ccc(Cl)cc2)nn1C1CCCN(CCCc2ccc(OCCCN3CCCCCC3)cc2)CC1 (stereo not shown) [Example 12] and give its measured Kb.
*A* < 10 nM

*Q* Could you tell me which Kb is on file for O=c1c2ccccc2c(Cc2ccc(Cl)cc2)nn1C[C@H]1CCCN1CCCOc1ccc2c(c1)CCN(C1CCC1)CC2 [Example 15] ?
*A* < 10 nM

*Q* May I ask what Kb has been recorded for O=c1c2ccccc2c(Cc2ccc(F)cc2)nn1C[C@H]1CCCN1CCCCc1ccc(OCCCN2CCCCCC2)cc1 [Example 9] ?
*A* < 1 nM

*Q* What value of measured Kb is listed for CN(CCCCc1ccc(OCCCN2CCCCCC2)cc1)CCn1nc(Cc2ccc(Cl)cc2)c2ccccc2c1=O [Example 3] ?
*A* < 10 nM

*Q* Look at this molecule and give its reported Kb. O=c1c2ccccc2c(Cc2ccc(O)cc2)nn1C[C@H]1CCCN1CCCCc1ccc(OCCCN2CCCCCC2)cc1 [Example 8]
*A* < 10 nM

*Q* Quick one: Kb for O=c1c2ccccc2c(Cc2ccc(Cl)cc2)nn1C1CCCN(CCc2ccc(OCCCN3CCCCCC3)cc2)CC1 (stereo not shown) [Example 11] ?
*A* < 10 nM

*Q* Entry under review: O=c1c2ccccc2c(Cc2ccc(Cl)cc2)nn1C[C@H]1CCCN1CCCCCc1ccc(OCCCN2CCCCCC2)cc1 [Example 6] . Reported Kb?
*A* < 1 nM
